Experiment: in vivo
Details: athymic nude, mouse, po, 15 mg/kg
Reported Property: concentration at 1 h (ng/mL)
Answer format: numeric, ng/mL implied, no suffix.

Req: Quick one: concentration at 1 h for C#CCNC1CCc2ccccc21 (stereo not shown) ?
Resp: 216

----------
Test: in vivo
Settings: athymic nude, mouse, po, 15 mg/kg
Reported Property: concentration at 2 h (ng/mL)
Answer format: numeric, ng/mL implied, no suffix.

Req: Quick one: concentration at 2 h for C#CCNC1CCc2ccccc21 (stereo not shown) ?
Resp: 82.5
